- SYSTEM_NAME: biotinylated CD59 (Homo sapiens)
- Construct: Recombinant soluble human CD59 with an additional C-terminal cysteine residue
- Sequence (P13987 26-102 limits assumed): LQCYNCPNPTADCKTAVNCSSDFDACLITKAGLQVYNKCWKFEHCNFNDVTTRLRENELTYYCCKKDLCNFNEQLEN
- EXPERIMENT_NOTES: mRNA-display cyclic peptide screen against CD59-biotin, NGS abundance after 6th selection round
- CONDITION_DETAILS: raw NGS counts of peptide sequence, sequencing sample Seq II, sheet R6 (6th selection round)
- From the text: To discover novel non‐protein CD59 ligands, we screened a library of 10^12 cyclic peptides against CD59 using mRNA‐display (Figure 2a).^[ [23], [24], [25], [26], [27], [28], [29] ^] Briefly, an mRNA library was designed in which the start codon was reprogrammed from Met to N‐chloroacetyl‐D‐Tyr (ClAc‐D‐Tyr), followed by 10–12 randomly encoded natural amino acids, a Cys residue, a (GlySer)3 linker, and a stop codon. […]
Recorded Counts Seq II, one value per entry.
OUTCOME_MEASURE: Counts Seq II

[[record]]
input_sequence = "SSYRELAHLSC"
system_name = "biotinylated CD59 (Homo sapiens)"
quantitative_result = 54

[[record]]
input_sequence = "HCWVRGGRNYT"
system_name = "biotinylated CD59 (Homo sapiens)"
quantitative_result = 6

[[record]]
input_sequence = "LVTGNRDHTRG"
system_name = "biotinylated CD59 (Homo sapiens)"
quantitative_result = 13

[[record]]
input_sequence = "YCWVRGSRNYT"
system_name = "biotinylated CD59 (Homo sapiens)"
quantitative_result = 26

[[record]]
input_sequence = "CFVRRLNDLTTT"
system_name = "biotinylated CD59 (Homo sapiens)"
quantitative_result = 59

[[record]]
input_sequence = "FVTGNRDHARG"
system_name = "biotinylated CD59 (Homo sapiens)"
quantitative_result = 15

[[record]]
input_sequence = "CYGGQTFIYAWS"
system_name = "biotinylated CD59 (Homo sapiens)"
quantitative_result = 13

[[record]]
input_sequence = "TFRKRLTATCGT"
system_name = "biotinylated CD59 (Homo sapiens)"
quantitative_result = 12

[[record]]
input_sequence = "LGGRGCFRPCSAAAAAAARTGGG"
system_name = "biotinylated CD59 (Homo sapiens)"
quantitative_result = 18

[[record]]
input_sequence = "YGASPTSLCSGI"
system_name = "biotinylated CD59 (Homo sapiens)"
quantitative_result = 80

[[record]]
input_sequence = "CYGGRTFVYAWS"
system_name = "biotinylated CD59 (Homo sapiens)"
quantitative_result = 45

[[record]]
input_sequence = "SRGGKDWSRG"
system_name = "biotinylated CD59 (Homo sapiens)"
quantitative_result = 108

[[record]]
input_sequence = "IIRGNRLTKYE"
system_name = "biotinylated CD59 (Homo sapiens)"
quantitative_result = 11

[[record]]
input_sequence = "FVMGNRDHTRG"
system_name = "biotinylated CD59 (Homo sapiens)"
quantitative_result = 10

[[record]]
input_sequence = "AVWGSAHDRWE"
system_name = "biotinylated CD59 (Homo sapiens)"
quantitative_result = 20

[[record]]
input_sequence = "WSTRTFTCRTLL"
system_name = "biotinylated CD59 (Homo sapiens)"
quantitative_result = 192

[[record]]
input_sequence = "HCWVRGSRNYT"
system_name = "biotinylated CD59 (Homo sapiens)"
quantitative_result = 1098

[[record]]
input_sequence = "CFAGRLTEGV"
system_name = "biotinylated CD59 (Homo sapiens)"
quantitative_result = 19

[[record]]
input_sequence = "YAQGDKLTARG"
system_name = "biotinylated CD59 (Homo sapiens)"
quantitative_result = 11

[[record]]
input_sequence = "FVRGNSTSVLF"
system_name = "biotinylated CD59 (Homo sapiens)"
quantitative_result = 8

[[record]]
input_sequence = "ASWLPSPCKFN"
system_name = "biotinylated CD59 (Homo sapiens)"
quantitative_result = 16

[[record]]
input_sequence = "TSYGSRVFAYF"
system_name = "biotinylated CD59 (Homo sapiens)"
quantitative_result = 13

[[record]]
input_sequence = "HVFGNRFFTRG"
system_name = "biotinylated CD59 (Homo sapiens)"
quantitative_result = 17

[[record]]
input_sequence = "FVSGNSRFRRE"
system_name = "biotinylated CD59 (Homo sapiens)"
quantitative_result = 30

[[record]]
input_sequence = "FVRGDLYSVLG"
system_name = "biotinylated CD59 (Homo sapiens)"
quantitative_result = 2116

[[record]]
input_sequence = "CFAHRITDPDTQ"
system_name = "biotinylated CD59 (Homo sapiens)"
quantitative_result = 8

[[record]]
input_sequence = "VVRGGTAFRYE"
system_name = "biotinylated CD59 (Homo sapiens)"
quantitative_result = 11

[[record]]
input_sequence = "AKGNGHFAYG"
system_name = "biotinylated CD59 (Homo sapiens)"
quantitative_result = 49

[[record]]
input_sequence = "SWTWGNRSSARG"
system_name = "biotinylated CD59 (Homo sapiens)"
quantitative_result = 15

[[record]]
input_sequence = "CFQNRVSGSGAL"
system_name = "biotinylated CD59 (Homo sapiens)"
quantitative_result = 50

[[record]]
input_sequence = "LLGSSSYVKFWY"
system_name = "biotinylated CD59 (Homo sapiens)"
quantitative_result = 114

[[record]]
input_sequence = "CFRYRLGLTST"
system_name = "biotinylated CD59 (Homo sapiens)"
quantitative_result = 25

[[record]]
input_sequence = "FVTGNRDRTRG"
system_name = "biotinylated CD59 (Homo sapiens)"
quantitative_result = 11

[[record]]
input_sequence = "SAYGSRDFAWA"
system_name = "biotinylated CD59 (Homo sapiens)"
quantitative_result = 10

[[record]]
input_sequence = "ISYGDRSYTYY"
system_name = "biotinylated CD59 (Homo sapiens)"
quantitative_result = 52

[[record]]
input_sequence = "CFGRRADPDGI"
system_name = "biotinylated CD59 (Homo sapiens)"
quantitative_result = 13

[[record]]
input_sequence = "FVTGDRDHTRG"
system_name = "biotinylated CD59 (Homo sapiens)"
quantitative_result = 52

[[record]]
input_sequence = "IATGSKLYAKG"
system_name = "biotinylated CD59 (Homo sapiens)"
quantitative_result = 20

[[record]]
input_sequence = "GRLNECHAIWP"
system_name = "biotinylated CD59 (Homo sapiens)"
quantitative_result = 45

[[record]]
input_sequence = "HVFGNRSFTRG"
system_name = "biotinylated CD59 (Homo sapiens)"
quantitative_result = 2514

[[record]]
input_sequence = "QWNRWYGIDEL"
system_name = "biotinylated CD59 (Homo sapiens)"
quantitative_result = 30

[[record]]
input_sequence = "SWTWGNGSSVRG"
system_name = "biotinylated CD59 (Homo sapiens)"
quantitative_result = 80


Sourced from paper PMC12207370
